Data origin, for the record: patent US8710043B2

- TARGET OF ASSAY: human TRPM8 (Homo sapiens, UniProt Q7Z2W7)
- Construct: expressed in transfected cells; host or cells: Chinese hamster ovary (CHO) cells, T-REx tetracycline-inducible system, co-transfected with aequorin
- Sequence (Q7Z2W7 whole entry): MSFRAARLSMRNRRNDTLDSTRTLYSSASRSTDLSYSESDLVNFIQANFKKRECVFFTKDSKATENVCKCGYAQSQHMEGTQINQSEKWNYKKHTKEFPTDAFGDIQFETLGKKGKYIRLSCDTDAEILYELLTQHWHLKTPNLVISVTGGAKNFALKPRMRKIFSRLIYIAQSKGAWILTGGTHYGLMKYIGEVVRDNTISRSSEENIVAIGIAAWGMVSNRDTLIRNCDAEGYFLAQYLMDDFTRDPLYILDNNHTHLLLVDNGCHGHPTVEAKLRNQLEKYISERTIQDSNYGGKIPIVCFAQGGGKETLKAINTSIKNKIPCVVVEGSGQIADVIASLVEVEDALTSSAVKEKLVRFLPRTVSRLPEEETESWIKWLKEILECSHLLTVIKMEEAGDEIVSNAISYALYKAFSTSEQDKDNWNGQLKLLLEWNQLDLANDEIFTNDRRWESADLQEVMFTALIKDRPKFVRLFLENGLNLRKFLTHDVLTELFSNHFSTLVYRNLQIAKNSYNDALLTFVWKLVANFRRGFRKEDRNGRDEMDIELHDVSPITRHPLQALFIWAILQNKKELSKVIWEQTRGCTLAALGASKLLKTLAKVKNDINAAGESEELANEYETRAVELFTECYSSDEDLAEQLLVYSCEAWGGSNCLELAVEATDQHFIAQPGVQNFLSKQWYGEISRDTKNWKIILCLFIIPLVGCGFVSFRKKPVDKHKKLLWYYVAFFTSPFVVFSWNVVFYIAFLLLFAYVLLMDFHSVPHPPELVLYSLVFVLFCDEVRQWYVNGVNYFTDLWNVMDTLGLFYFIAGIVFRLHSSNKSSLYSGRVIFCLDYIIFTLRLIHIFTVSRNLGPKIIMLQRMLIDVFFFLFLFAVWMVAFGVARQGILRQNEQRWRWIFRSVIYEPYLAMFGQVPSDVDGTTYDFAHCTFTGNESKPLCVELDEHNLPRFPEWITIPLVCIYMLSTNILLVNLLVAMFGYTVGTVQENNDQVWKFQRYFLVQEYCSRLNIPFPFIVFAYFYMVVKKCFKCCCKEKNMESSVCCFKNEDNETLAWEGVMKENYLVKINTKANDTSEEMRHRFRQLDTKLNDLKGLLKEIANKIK
- EXPERIMENT: Luminescence readout assay for measuring intracellular calcium, icilin activation
- Format: cell-based
- ASSAY CONTEXT: CHO cells expressing human TRPM8, aequorin luminescence, 1 μM icilin activation; read-out: hTRPM8 IC50
// assign YES if IC50 falls strictly below 0.05 µM, else NO (ties count as NO)

1. O=C(O)c1ccc(C(=O)N[C@@H](c2ccc(OC(F)(F)F)cc2)c2ncccc2F)nc1 = YES
2. COn1cc(C(=O)N[C@@H](c2ccc(C(F)(F)F)cc2)c2ncccc2F)ccc1=O = NO
3. O=C(Cc1c[nH]cn1)N[C@@H](c1ccc(C(F)(F)F)cc1)c1ncccc1C(F)(F)F = NO
4. O=C(N[C@@H](c1ccc(C(F)(F)F)cc1)c1ncccc1C(F)(F)F)c1ccc2c(c1)C(=O)NC2 = NO
5. O=C(N[C@@H](c1ccc(C(F)(F)F)cc1)c1ncccc1F)c1ccc2nnnn2c1 = YES
6. O=C(N[C@@H](c1ccc(OC(F)(F)F)c(F)c1)c1ncccc1F)c1cc2[nH]c(=O)oc2cn1 = NO

---

- TARGET OF ASSAY: human TRPM8 (Homo sapiens, UniProt Q7Z2W7)
- Construct: expressed in transfected cells; host or cells: Chinese hamster ovary (CHO) cells, T-REx tetracycline-inducible system, co-transfected with aequorin
- EXPERIMENT: Luminescence readout assay for measuring intracellular calcium, icilin activation
- Assay type: cell-based
- ASSAY CONTEXT: CHO cells expressing human TRPM8, aequorin luminescence, 1 μM icilin activation; read-out: hTRPM8 IC50
READOUT KIND: IC50 (nM)

1. O=C(N[C@@H](c1ccc(OC(F)(F)F)cc1)c1ncccc1F)c1ccn2ccnc2c1 = 12.1
2. O=C(N[C@@H](c1ccc(C(F)(F)F)c(F)c1)c1ncccc1C(F)(F)F)c1ccccn1 = 84.4
3. O=C(N[C@@H](c1ccc(C(F)(F)F)cc1)c1ncccc1F)c1cccc(F)c1 = 45.3
4. COc1ncc(C(=O)N[C@@H](c2ccc(C(F)(F)F)cc2)c2ncccc2C(F)(F)F)cn1 = 53.9
5. O=C(N[C@@H](c1ccc(OC(F)(F)F)c(F)c1)c1ncccc1F)c1cnc2[nH]c(=O)oc2c1 = 14
6. O=C(N[C@@H](c1ccc(C(F)(F)F)cc1)c1ncccc1C(F)(F)F)c1cncc(O)c1 = 63.9
7. O=C(N[C@@H](c1ccc(C(F)(F)F)cc1)c1ncccc1F)c1ccc(=O)n(C(F)F)c1 = 20.1
8. O=C1Cc2ccc(C(=O)N[C@@H](c3ccc(C(F)(F)F)cc3)c3ncccc3C(F)(F)F)cc2N1 = 12.9
9. COc1ccc(C(=O)N[C@@H](c2ccc(C(F)(F)F)cc2)c2ncccc2C(F)(F)F)nc1 = 150
10. COc1cccc(C(=O)N[C@@H](c2ccc(C(F)(F)F)cc2)c2ncccc2C(F)(F)F)n1 = 125
11. O=C(N[C@@H](c1ccc(C(F)(F)F)cc1)c1ncccc1C(F)(F)F)c1cncnc1 = 148
12. Cc1cccnc1[C@@H](NC(=O)c1ccc(=O)n(C)c1)c1ccc(OC(F)(F)F)cc1 = 20
13. O=C(N[C@@H](c1ccc(C(F)(F)F)cc1)c1ncccc1C(F)(F)F)c1cnc(O)nc1 = 223
14. O=C(O)Cn1cc(C(=O)N[C@@H](c2ccc(C(F)(F)F)cc2)c2ncccc2F)ccc1=O = 2660
15. COc1ccc(C(=O)N[C@@H](c2ccc(OC(F)(F)F)c(F)c2)c2ncccc2F)[nH]c1=O = 3550
16. O=C(N[C@@H](c1ccc(OC(F)(F)F)cc1)c1ncccc1F)c1cccs1 = 52.4
17. CCc1cccnc1[C@@H](NC(=O)c1ccc(=O)[nH]c1)c1ccc(C(F)(F)F)cc1 = 12.4
18. O=C(N[C@@H](c1ccc(C(F)(F)F)c(F)c1)c1ncccc1C(F)(F)F)c1cnccn1 = 55.9
19. O=C(N[C@@H](c1ccc(OC(F)(F)F)c(F)c1)c1ncccc1F)c1ccc(=O)n(C2COC2)c1 = 14.4
20. O=C(N[C@@H](c1ccc(C(F)(F)F)cc1)c1ncccc1C(F)(F)F)c1ccccc1I = 90.5
21. COC(C)(C)C(=O)N[C@@H](c1ccc(C(F)(F)F)cc1)c1ncccc1C(F)(F)F = 81

---

The entries below are paired with their reported pIC50.
- TARGET OF ASSAY: human TRPM8 (Homo sapiens, UniProt Q7Z2W7)
- Construct: expressed in transfected cells; host or cells: Chinese hamster ovary (CHO) cells, T-REx tetracycline-inducible system, co-transfected with aequorin
- EXPERIMENT: Luminescence readout assay for measuring intracellular calcium, icilin activation
- Assay type: cell-based
- ASSAY CONTEXT: CHO cells expressing human TRPM8, aequorin luminescence, 1 μM icilin activation; read-out: hTRPM8 IC50
pIC50: −log10 of the molar value.
READOUT KIND: pIC50

1. O=C(N[C@@H](c1ccc(C(F)(F)F)cc1)c1ncccc1C(F)(F)F)[C@@H]1CCCO1 = 6.77
2. O=C(N[C@@H](c1ccc(C(F)(F)F)cc1)c1ncccc1C(F)(F)F)C1CCOCC1 = 6.34
3. COc1cccc([C@H](NC(=O)c2ccc3cccnc3c2)c2ncccc2C(F)(F)F)c1 = 6.50
4. Nc1cccnc1C(=O)N[C@@H](c1ccc(C(F)(F)F)cc1)c1ncccc1C(F)(F)F = 6.70
5. Cn1cc(C(=O)N[C@@H](c2ccc(F)c(F)c2)c2ncccc2F)ccc1=O = 6.57
6. Cn1cc(C(=O)N[C@@H](c2cc(F)cc(F)c2)c2ncccc2F)ccc1=O = 5.57
7. CNC(=O)c1ccc(C(=O)N[C@@H](c2ccc(C(F)(F)F)cc2)c2ncccc2F)nc1 [Example 273, 2,2,2-trifluoroacetate] = 7.79
8. O=C(N[C@@H](c1ccc(OC(F)(F)F)c(F)c1)c1ncccc1F)c1ccc2[nH]c(=O)oc2n1 = 8.01
9. Cn1cc(C(=O)N[C@@H](c2ccc(OC(F)(F)F)cc2)c2ncccc2F)ccc1=O [Example 252, 2,2,2-trifluoroacetate] = 7.61
10. O=C(N[C@@H](c1ccc(OC(F)(F)F)c(F)c1)c1ncccc1F)c1ccc(O)cn1 [Example 389, 2,2,2-trifluoroacetate] = 7.74
11. O=C(N[C@@H](c1ccc(C(F)(F)F)cc1)c1ncccc1F)c1ccc2cn[nH]c2c1 = 8.12
12. Cc1ncc(C(=O)N[C@@H](c2ccc(C(F)(F)F)cc2)c2ncccc2C(F)(F)F)cn1 = 7.20
13. CC(=O)Nc1ccc(C(=O)N[C@@H](c2ccc(C(F)(F)F)cc2)c2ncccc2C(F)(F)F)cn1 [Example 148, 2,2,2-trifluoroacetate] = 6.59
14. Cc1cccnc1[C@@H](NC(=O)c1ccc2c(c1)OCC(=O)N2)c1ccc(C(F)(F)F)cc1 = 7.54
15. O=C(N[C@@H](c1ccc(OC(F)(F)F)c(F)c1)c1ccccn1)c1ccc(=O)[nH]c1 = 7.86
16. O=C(N[C@@H](c1ccc(C(F)(F)F)cc1)c1ncccc1C(F)(F)F)c1ccc(O)cn1 = 7.70
17. Cn1ccnc1C(=O)N[C@@H](c1ccc(C(F)(F)F)cc1)c1ncccc1C(F)(F)F = 6.74
18. O=C(N[C@@H](c1ccc(C(F)(F)F)cc1)c1ncccc1F)c1ccc2c(Cl)ccnc2c1 [Example 120, 2,2,2-trifluoroacetate] = 7.23
19. O=C(N[C@@H](c1ccc(C(F)(F)F)cc1)c1ncccc1C(F)(F)F)c1ccn2ccnc2c1 = 8.05
20. O=C(CN1CCOC1=O)N[C@@H](c1ccc(C(F)(F)F)cc1)c1ncccc1C(F)(F)F = 5.60
21. CC(C)(C(=O)O)C(=O)N[C@@H](c1ccc(C(F)(F)F)cc1)c1ncccc1C(F)(F)F = 5.84
22. O=C(N[C@@H](c1ccc(C(F)(F)F)cc1)c1ncccc1F)c1ccc2nccnc2c1 = 7.63
23. CC#Cc1cccnc1[C@@H](NC(=O)c1ccc(=O)[nH]c1)c1ccc(C(F)(F)F)cc1 = 7.99

---

- TARGET OF ASSAY: human TRPM8 (Homo sapiens, UniProt Q7Z2W7)
- Construct: expressed in transfected cells; host or cells: Chinese hamster ovary (CHO) cells, T-REx tetracycline-inducible system, co-transfected with aequorin
- EXPERIMENT: Luminescence readout assay for measuring intracellular calcium, icilin activation
- Format: cell-based
- ASSAY CONTEXT: CHO cells expressing human TRPM8, aequorin luminescence, 1 μM icilin activation; read-out: hTRPM8 IC50
READOUT KIND: log10 IC50 (log10 of the value in nM)

1) C[C@H](O)Cn1cc(C(=O)N[C@@H](c2ccc(C(F)(F)F)cc2)c2ncccc2F)ccc1=O = 1.84
2) Cc1cc(F)cc([C@H](NC(=O)c2ccc(=O)n(C)c2)c2ncccc2F)c1 = 3.51
3) CC(C)(C)c1cccnc1[C@@H](NC(=O)c1ccc2cccnc2c1)c1ccc(C(F)(F)F)cc1 [Example 286, 2,2,2-trifluoroacetate] = 3.05
4) O=C(N[C@@H](c1ccc(C(F)(F)F)cc1)c1ccccn1)c1ccc2c(c1)NCCC2 = 2.25
5) O=C(N[C@@H](c1ccc(C(F)(F)F)cc1)c1ncccc1F)c1ccccc1 = 1.47
